assay: Membrane permeability test using Caco-2 cells with preincubation; type: in vitro ADME; details: Caco-2; preincubation 20 to 24 hours; Apical FaSSIF/HBSS pH 6.0, Basal HBSS 4% BSA pH 7.4; 180 minutes; read-out: Caco2 Papp
Starred links: 1 amine or outer side, 2 acyl side, 3 side chain; linkers in the order of their positions; H or OH if unused. Positions of bridges follow the written chain, without caps; N, C: chain ends. Non-standard residues stand in square brackets, D forms with d. Residues, ends and D or L forms follow the SMILES beside them. *: point of attachment. NMeF = CN[C@@H](Cc1ccccc1)C(=O)O; NMeI = CC[C@H](C)[C@H](NC)C(=O)O; NMeβAla = CN(CCC(=O)[*:2])[*:1]; NMeL = CN[C@@H](CC(C)C)C(=O)O; NMeA = CN[C@@H](C)C(=O)O; Piperidide = C1CCN(*)CC1; βAla = NCCC(=O)O; Sar = CNCC(=O)O; tBu = CC(C)(C)*
Catalogue of molecules with associated Papp A→B
Write the value in ×10⁻⁶ cm/s as a bare number.

Query CC[C@H](C)[C@H]1C(=O)N[C@@H]([C@@H](C)O)C(=O)N(C)CC(=O)N(C)[C@@H](CC(C)C)C(=O)N[C@@H](CC(C)C)C(=O)N[C@H](C(=O)N2CCCCC2)CC(=O)N(C)[C@@H](C)C(=O)N[C@@H](CC(C)C)C(=O)N(C)[C@@H](CC(C)C)C(=O)N(C)CCC(=O)N(C)[C@@H](Cc2ccccc2)C(=O)NCCC(=O)N(C)[C@@H](Cc2ccccc2)C(=O)N1C [pd113] ([NMeA]L[NMeL][NMeβAla][NMeF][βAla][NMeF][NMeI]T[Sar][NMeL]LD-Piperidide; lactam N-13) yields Papp A→B of 0.2

Query CC[C@H](C)[C@@H]1NC(=O)[C@H](C)N(C)C(=O)[C@H]([C@@H](C)O)NC(=O)[C@H](Cc2ccccc2)N(C)C(=O)[C@H](COC(C)(C)C)NC(=O)[C@H](CC(C)C)N(C)C(=O)CN(C)C(=O)[C@H](Cc2ccccc2)N(C)C(=O)[C@H]([C@@H](C)CC)NC(=O)[C@H](CC(C)C)N(C)C(=O)CCN(C)C(=O)C[C@@H](C(=O)N2CCCCC2)NC(=O)[C@H](CC(C)C)N(C)C1=O [pd110] ([NMeβAla][NMeL]I[NMeF][Sar][NMeL]S(tBu)[NMeF]T[NMeA]I[NMeL]D-Piperidide; lactam N-13) yields Papp A→B of 0.43

* * *

experiment: Metabolic stability test: liver microsomal stability assay; type: in vitro ADME, mouse; details: male, pH 7.4; mouse liver microsomes 0.5 mg protein/mL, compound 1 µM, presence of NADPH; read-out: Mouse Hepatic Microsome CLh,int NADPH(+)
Non-standard residues stand in square brackets, D forms with d. Residues, ends and D or L forms follow the SMILES beside them. *: point of attachment. NMeF = CN[C@@H](Cc1ccccc1)C(=O)O; NMeI = CC[C@H](C)[C@H](NC)C(=O)O; NMeL = CN[C@@H](CC(C)C)C(=O)O; d(β3hA) = C[C@@H](N)CC(=O)O; NMeA = CN[C@@H](C)C(=O)O; Sar = CNCC(=O)O; tBu = CC(C)(C)*
readout: microsomal CLint at 1 µM (µL/min/mg)
Write the value in µL/min/mg as a bare number.

Query CC[C@H](C)[C@@H]1NC(=O)[C@H](CC(C)C)N(C)C(=O)[C@H](CC(C)C)NC(=O)[C@H](C)N(C)C(=O)C[C@@H](C)NC(=O)CN(C)C(=O)[C@H](CC(C)C)N(C)C(=O)[C@H]([C@@H](C)O)NC(=O)[C@H](C(C)C)NC(=O)[C@H]([C@@H](C)CC)N(C)C(=O)[C@H](COC(C)(C)C)NC(=O)[C@H](CC(C)C)N(C)C(=O)[C@H](C)NC(=O)[C@H](Cc2ccccc2)N(C)C1=O [pd009] (cyclo(A[NMeL]S(tBu)[NMeI]VT[NMeL][Sar][d(β3hA)][NMeA]L[NMeL]I[NMeF])) yields microsomal CLint at 1 µM of 38.9
